- TGT: T1, Staphylococcal enterotoxin B (Staphylococcus aureus, strain , UniProt P01552)
- T1 construct: source: bought: Toxin technologies
- ASSAY DETAILS: SPR
- CONDITION SET: both partners purified
OUTCOME MEASURE: Kd (nM)

binder="sdAb A3 Construct 1 (A49C I73C) (VHH, Keeps C22/C99) VHH: EVQLVESGGGLVQAGDSLRLSCTASGRTFSRAVMGWFRQAPGKEREFVCAISAAPGTAYYAFYADSVRGRFSCSADSAKNTVYLQMNSLKPEDTAVYYCAADLKMQVAAYMNQRSVDYWGQGTQVTVSS" numeric_result=0.66
binder="sdAb A3 Construct 3 (V33C M105C) (VHH, Keeps C22/C99) VHH: EVQLVESGGGLVQAGDSLRLSCTASGRTFSRACMGWFRQAPGKEREFVAAISAAPGTAYYAFYADSVRGRFSISADSAKNTVYLQMNSLKPEDTAVYYCAADLKCQVAAYMNQRSVDYWGQGTQVTVSS" numeric_result=0.21
binder="sdAb A3 Construct 2 (A50C A108C) (VHH, Keeps C22/C99) VHH: EVQLVESGGGLVQAGDSLRLSCTASGRTFSRAVMGWFRQAPGKEREFVACISAAPGTAYYAFYADSVRGRFSISADSAKNTVYLQMNSLKPEDTAVYYCAADLKMQVCAYMNQRSVDYWGQGTQVTVSS" numeric_result=0.06
binder="sdAb A3 Construct 4 (Q3C Y118C) (VHH, Keeps C22/C99) VHH: EVCLVESGGGLVQAGDSLRLSCTASGRTFSRAVMGWFRQAPGKEREFVAAISAAPGTAYYAFYADSVRGRFSISADSAKNTVYLQMNSLKPEDTAVYYCAADLKMQVAAYMNQRSVDCWGQGTQVTVSS" numeric_result=0.06
binder="sdAb A3, anti-Staphylococcal Enterotoxin B single domain antibody (VHH, also called wild type sdAb A3) VHH: EVQLVESGGGLVQAGDSLRLSCTASGRTFSRAVMGWFRQAPGKEREFVAAISAAPGTAYYAFYADSVRGRFSISADSAKNTVYLQMNSLKPEDTAVYYCAADLKMQVAAYMNQRSVDYWGQGTQVTVSS" numeric_result=0.23
